Measured viability, T/C of individual entries
# System: 282377-053-R-J1-PDC complex spheroid viability;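 further: spheroids exposed to agents for seven days before readout; luminescence viability as percent of DMSO vehicle control wells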
# assay_comment: Anticancer human tumor 282377-053-R-J1-PDC patient-derived colon adenocarcinoma cell line growth inhibition [RAS]
# assay_conditions: second compound 0.3 µM; first compound 0.316 µM; active compounds read low
# Source text: RAS pathway inhibitors in Combinations in Complex Spheroids A high-throughput screen of multi-cell type tumor spheroids was designed to identify active combinations of RAS pathway inhibitors and targeted small molecules. Complex spheroids include a stromal component modeled by human endothelial cells (HUVEC) and fibroblasts modeled by human mesenchymal stem cells (MSCs). […] Compounds. […] If the clinical Cmax for an agent had not been determined, the highest concentration tested was 10 microM. […]
Only the number, expressed in %, is required.

molecule	target_desc	result_value
CCC(CC)c1cc(NC2CCC(N)C2)n2nccc2n1 (centres undefined) + CCn1c(-c2cc(N3CCN(C)CC3)cnc2C(C)OC)c2c3cc(ccc31)-c1csc(n1)CC(NC(=O)C1CC1C)C(=O)N1CCCC(N1)C(=O)OCC(C)(C)C2	282377-053-R-J1-PDC complex spheroid viability	86.1
CC(C)NCC(C(=O)N1CCN(c2ncnc3c2C(C)CC3O)CC1)c1ccc(Cl)cc1 (centres undefined) + CCn1c(-c2cccnc2C(C)OC)c2c3cc(ccc31)N1CCOC(CC(NC(=O)C(C(C)C)N(C)C(=O)C3(F)CCN(C(=O)C#CC(C)(C)N(C)C)CC3)C(=O)N3CCCC(N3)C(=O)OCC(C)(C)C2)C1	282377-053-R-J1-PDC complex spheroid viability	94.8
CCN1CCN(Cc2ccc(Nc3ncc(F)c(-c4cc(F)c5nc(C)n(C(C)C)c5c4)n3)nc2)CC1 + CCn1c(-c2cccnc2C(C)OC)c2c3cc(ccc31)N1CCOC(CC(NC(=O)C(C(C)C)N(C)C(=O)C3(F)CCN(C(=O)C#CC(C)(C)N(C)C)CC3)C(=O)N3CCCC(N3)C(=O)OCC(C)(C)C2)C1	282377-053-R-J1-PDC complex spheroid viability	160

Next up:
Sure, the documented viability, T/C for C[C@@H](NC(=O)c1ncnc(N)c1Cl)c1ncc(C(=O)Nc2cc(C(F)(F)F)c(Cl)cn2)s1 + CCn1c(-c2cccnc2C(C)OC)c2c3cc(ccc31)N1CCOC(CC(NC(=O)C(C(C)C)N(C)C(=O)C3(F)CCN(C(=O)C#CC(C)(C)N(C)C)CC3)C(=O)N3CCCC(N3)C(=O)OCC(C)(C)C2)C1 is 96.8
